Molecular target: T1, Ax1 protein, extracellular domain (human, UniProt P30530 26-451)
T1 construct: extracellular domain; also called Axl; Ark
T1 sequence (looked up): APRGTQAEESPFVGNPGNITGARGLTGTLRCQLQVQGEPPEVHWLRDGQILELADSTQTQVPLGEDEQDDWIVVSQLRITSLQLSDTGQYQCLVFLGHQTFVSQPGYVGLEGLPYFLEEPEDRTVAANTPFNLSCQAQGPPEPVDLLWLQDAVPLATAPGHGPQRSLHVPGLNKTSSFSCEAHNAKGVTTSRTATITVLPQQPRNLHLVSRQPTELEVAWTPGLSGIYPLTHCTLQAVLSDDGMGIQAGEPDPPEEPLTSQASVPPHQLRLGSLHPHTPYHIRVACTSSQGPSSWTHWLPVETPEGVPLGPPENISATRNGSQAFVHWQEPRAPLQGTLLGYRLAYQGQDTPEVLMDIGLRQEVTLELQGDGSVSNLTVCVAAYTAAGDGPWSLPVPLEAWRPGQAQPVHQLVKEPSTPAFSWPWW
Assay: ELISA, mutant diluted 1:3
Attribute measured: Affinity ELISA CPE mutant ratio (1:3, pH 6.0/7.4)
Output spec: single numeric token, no unit.

- Binder: "LC-P095V (antibody, V domains shown, CPE single point mutant) VH: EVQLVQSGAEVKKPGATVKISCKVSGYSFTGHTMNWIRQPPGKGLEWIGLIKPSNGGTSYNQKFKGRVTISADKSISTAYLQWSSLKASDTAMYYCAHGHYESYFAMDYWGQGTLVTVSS VL: DIQMTQSPSSLSASVGDRVTITCKASQDVSSAVAWYQQKPGQAPRLLIYWASTRHTGVPSRFSGSGSGTEFTLTISSLQPDDFATYYCQEHFSTVLTFGQGTKVEIK"
  Experimental value: 1.87

Now consider a different binder.
Prompt: Affinity ELISA CPE mutant ratio (1:3, pH 6.0/7.4) lookup needed for LC-H091S (antibody, V domains shown, CPE single point mutant) VH: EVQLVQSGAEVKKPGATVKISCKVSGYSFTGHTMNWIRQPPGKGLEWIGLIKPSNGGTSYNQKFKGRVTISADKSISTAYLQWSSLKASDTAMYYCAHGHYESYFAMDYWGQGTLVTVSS VL: DIQMTQSPSSLSASVGDRVTITCKASQDVSSAVAWYQQKPGQAPRLLIYWASTRHTGVPSRFSGSGSGTEFTLTISSLQPDDFATYYCQESFSTPLTFGQGTKVEIK , thanks.
Completion: 1.76
